These entries and their values trace back to patent US11066399B2.

Target: ferroportin (Fpn) (Mus musculus, UniProt Q9JHI9)
Sequence (Q9JHI9 1-570): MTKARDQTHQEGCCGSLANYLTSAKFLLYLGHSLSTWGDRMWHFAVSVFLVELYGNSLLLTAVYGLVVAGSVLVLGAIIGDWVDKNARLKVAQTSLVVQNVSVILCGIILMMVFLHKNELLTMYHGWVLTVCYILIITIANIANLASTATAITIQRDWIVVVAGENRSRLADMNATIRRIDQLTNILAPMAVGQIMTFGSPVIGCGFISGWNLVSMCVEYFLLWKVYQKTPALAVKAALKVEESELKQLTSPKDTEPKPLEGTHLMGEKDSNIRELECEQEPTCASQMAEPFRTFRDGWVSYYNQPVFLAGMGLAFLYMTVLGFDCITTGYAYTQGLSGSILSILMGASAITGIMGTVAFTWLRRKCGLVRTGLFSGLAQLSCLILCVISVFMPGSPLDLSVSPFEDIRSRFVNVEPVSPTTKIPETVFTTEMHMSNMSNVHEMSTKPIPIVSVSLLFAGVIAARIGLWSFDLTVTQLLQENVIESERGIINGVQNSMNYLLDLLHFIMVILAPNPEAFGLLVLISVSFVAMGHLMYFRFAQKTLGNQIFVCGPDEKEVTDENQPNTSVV
Assay: Hepcidin Internalization Assay (J774)
Conditions: average (AVE) of multiple measurements; TMR-hepcidin 25 nM, J774 cells
OUTCOME_MEASURE: log10(IC50) (log10 of the value in nM)
Give log10 of IC50, with IC50 taken in nM.

Here is how some compounds turned out for log10(IC50).
O=C(NCc1ncccc1F)c1noc(CCNCCc2nc3ccccc3[nH]2)n1 3.30
O=C(NCc1ncccc1F)c1cnc(C2CN(CCc3nc4ccccc4[nH]3)C2)o1 1.54
O=C(NCc1ncccc1F)c1csc(CCNCc2nc3ccccc3[nH]2)n1 1.69
O=C(NCc1ncccc1F)c1cnc(C2CN(CCc3nc4c(F)cccc4[nH]3)C2)o1 2.23

Record O=C(NCc1ncccc1F)c1cnc(CCNCCc2nc3ccccc3[nH]2)s1 . Reported log10(IC50): 2.38

Record O=C(NCc1ncccc1F)c1csc(CCN2Cc3nc4ccccc4n3CC2=O)n1 . Reported log10(IC50): 4.41

---

Molecular target: human Fpn (Homo sapiens, UniProt Q9NP59)
Construct: FLAG (C); made in house; host or cells: Pichia pastoris
Assay: Biophysical Ferroportin-Hepcidin Binding Assay (fluorescence polarization)
Conditions: average (AVE) of multiple measurements; TMR-hepcidin binding to purified human Fpn; read-out: FP IC50
Threshold 20 nM. IC50 below it: label 1. IC50 at it or above: label 0.

O=C(NCc1ncccc1F)c1cnc(CCNCCc2nc3ccccc3[nH]2)o1 label 1

Would you kindly look at the next entry?
In: Hello, I'm reviewing records and need to know if IC50 of O=C(NCc1ncccc1F)c1cnc(C2CN(CCc3nc4ccccc4[nH]3)C2)o1 is below 20 nM. Could you check?
Out: label 1

---

Each item that follows carries a reported EC50.
Biological target: human Fpn-GFP fusion construct (Homo sapiens)
Sequence (Q9NP59 1-571): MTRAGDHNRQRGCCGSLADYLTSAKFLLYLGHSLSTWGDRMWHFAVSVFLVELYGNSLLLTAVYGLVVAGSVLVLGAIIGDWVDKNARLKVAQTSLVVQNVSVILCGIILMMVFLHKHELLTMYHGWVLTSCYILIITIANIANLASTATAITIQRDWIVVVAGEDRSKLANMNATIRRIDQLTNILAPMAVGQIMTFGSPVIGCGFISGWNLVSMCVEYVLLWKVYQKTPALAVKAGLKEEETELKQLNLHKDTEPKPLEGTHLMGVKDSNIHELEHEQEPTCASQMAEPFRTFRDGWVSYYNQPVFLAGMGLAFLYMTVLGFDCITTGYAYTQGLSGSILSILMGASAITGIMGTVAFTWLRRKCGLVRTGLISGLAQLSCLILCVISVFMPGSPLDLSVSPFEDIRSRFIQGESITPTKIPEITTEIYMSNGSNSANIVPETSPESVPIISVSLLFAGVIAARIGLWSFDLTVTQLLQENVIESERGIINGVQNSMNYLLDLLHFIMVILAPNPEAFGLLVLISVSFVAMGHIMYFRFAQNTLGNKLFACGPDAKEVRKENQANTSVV
Assay: Inhibition of ferroportin mediated iron export activity in an iron response assay (BLAzer)
Details: average (AVE) of multiple measurements; HEK-293 cell line #354
Reply with just the number (in nM).

Here is how some compounds turned out for EC50.
O=C(NCc1ncccc1F)c1cnc(C2CN(CCc3nc4ccccc4[nH]3)C2)o1 1030
O=C(NCc1ncccc1F)c1cnn(CCNCCc2cc3ccccc3[nH]2)c1 170
O=C(NCc1ncccc1F)c1csc(CCNCc2nc3ccccc3[nH]2)n1 1450

Pending compound:
Assay human Fpn-GFP fusion construct (Homo sapiens), sample O=C(NCc1ncccc1F)c1cnc(CCNCCc2nc3ccccc3[nH]2)o1 , EC50 read: 930
